experiment: Cytotoxicity assay (MTT), NCI-H460; conditions: human, NCI-H460 cells
Readout name: IC50 at 72 h (µM)
A number alone suffices; assume µM.

Q: Output IC50 at 72 h of COc1ccc(N2CCN(c3ccc(OC)cc3)C2=[S+][Au-][S+]=C2N(c3ccc(OC)cc3)CCN2c2ccc(OC)cc2)cc1 [complex 1, [Au(TU)2]Cl]
Result: 3.72

----------
test: Cytotoxicity assay (MTT), SUNE1; conditions: human, SUNE1 cells
Readout name: IC50 at 72 h (µM)
A number alone suffices; assume µM.

Q: Output IC50 at 72 h of COc1ccc(N2CCN(c3ccc(OC)cc3)C2=[S+][Au-][S+]=C2N(c3ccc(OC)cc3)CCN2c2ccc(OC)cc2)cc1 [complex 1, [Au(TU)2]Cl]
Result: 10.8

----------
target: TrxR1 (Rattus norvegicus, UniProt O89049); assay: biochemical; settings: overall inhibitory constant Ki*, progress curve analysis, Eq. 3
Readout name: pKi
Field pKi (float): negative decimal logarithm of the concentration in molar.

Q: Output pKi of COc1ccc(N2CCN(c3ccc(OC)cc3)C2=[S+][Au-][S+]=C2N(c3ccc(OC)cc3)CCN2c2ccc(OC)cc2)cc1 [complex 1, [Au(TU)2]Cl]
Result: 10.74

----------
tested on: SUNE1, human nasopharyngeal carcinoma
Readout name: pIC50
Field pIC50 (float): negative decimal logarithm of the concentration in molar.

Q: Output pIC50 of F[P-](F)(F)(F)(F)F.NC(N)=S.NC(N)=S.[Cu+] [complex 3, [Cu(TU)2]PF6]
Result: 5.07

----------
tested on: NCI-H460 = human lung carcinoma
Readout name: pIC50
Field pIC50 (float): negative decimal logarithm of the concentration in molar.

Q: Identify measured pIC50 obtained with NCI-H460 = human lung carcinoma for F[P-](F)(F)(F)(F)F.NC(N)=S.NC(N)=S.[Cu+] [complex 3, [Cu(TU)2]PF6] .
Result: 4.95

----------
assay: Cytotoxicity assay (MTT), HeLa; conditions: human, HeLa cells
Readout name: IC50 at 72 h (µM)
A number alone suffices; assume µM.

Q: Output IC50 at 72 h of COc1ccc(N2CCN(c3ccc(OC)cc3)C2=[S+][Au-][S+]=C2N(c3ccc(OC)cc3)CCN2c2ccc(OC)cc2)cc1 [complex 1, [Au(TU)2]Cl]
Result: 14.6

----------
target: Recombinant rat TrxR1 (Rattus norvegicus, UniProt O89049); construct: purchased ICMO Corp, Sweden (so in the source); assay: biochemical; conditions: inhibitory constant Ki*, preformed EI*, corrected for substrate competition, Km 0.2 mM
Sequence (O89049 whole entry): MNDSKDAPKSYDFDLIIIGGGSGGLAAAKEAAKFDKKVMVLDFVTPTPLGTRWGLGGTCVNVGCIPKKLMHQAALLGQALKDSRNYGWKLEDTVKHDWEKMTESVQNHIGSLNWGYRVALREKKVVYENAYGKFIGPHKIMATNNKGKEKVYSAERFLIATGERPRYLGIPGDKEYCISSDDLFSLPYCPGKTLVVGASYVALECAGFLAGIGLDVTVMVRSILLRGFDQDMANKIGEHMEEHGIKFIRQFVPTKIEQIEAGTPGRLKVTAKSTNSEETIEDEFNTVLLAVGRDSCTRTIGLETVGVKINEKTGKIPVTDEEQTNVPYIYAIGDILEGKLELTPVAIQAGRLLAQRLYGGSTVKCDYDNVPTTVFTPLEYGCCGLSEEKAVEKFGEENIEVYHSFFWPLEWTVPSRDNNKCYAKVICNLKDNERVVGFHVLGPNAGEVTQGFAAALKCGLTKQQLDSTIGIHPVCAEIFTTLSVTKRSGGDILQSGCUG
Readout name: Ki (nM)
A number alone suffices; assume nM.

Q: Output Ki of COc1ccc(N2CCN(c3ccc(OC)cc3)C2=[S+][Au-][S+]=C2N(c3ccc(OC)cc3)CCN2c2ccc(OC)cc2)cc1 [complex 1, [Au(TU)2]Cl]
Result: 0.036

----------
test: Cytotoxicity assay (MTT), HepG2; details: human, HepG2 cells
Readout name: IC50 at 72 h (µM)
A number alone suffices; assume µM.

Q: Output IC50 at 72 h of COc1ccc(N2CCN(c3ccc(OC)cc3)C2=[S+][Au-][S+]=C2N(c3ccc(OC)cc3)CCN2c2ccc(OC)cc2)cc1 [complex 1, [Au(TU)2]Cl]
Result: 17.4

----------
tested on: HeLa, human cervical epithelioid carcinoma; assay: Cytotoxicity assay (MTT), HeLa; details: read-out: Cytotoxicities (IC50), HeLa, 72 h, MTT
Readout name: IC50 (µM)
A number alone suffices; assume µM.

Q: Output IC50 of O=[N+]([O-])[O-].[Ag+] [AgNO3, reference compound]
Result: 32.1
